pIC50 values by entry
biological target: COX-2 (UniProt P35354); assay: Fast assay for COX-2 activity (PGE2 ELISA); type: biochemical, human or murine; conditions: fast assay: 10 min pre-incubation at 25° C., reaction stopped after two minutes, pH 7.5
pIC50: −log10 of the molar value.

Solved entries (count: 4):
[
  {
    "MOLECULE": "O=C(O)C1=Cc2cc(Cl)cc(Br)c2OC1C(F)(F)F (centres unmarked) [Example 15]",
    "pIC50": "< 7.00"
  },
  {
    "MOLECULE": "O=C(O)C1=Cc2c(cc(Cl)c(Cl)c2Cl)OC1C(F)(F)F (centres unmarked) [Example 83]",
    "pIC50": "> 7.00"
  },
  {
    "MOLECULE": "O=C(O)C1=Cc2cc(Cl)c(Oc3cccnc3)cc2OC1C(F)(F)F (centres unmarked) [Example 201]",
    "pIC50": "> 7.00"
  },
  {
    "MOLECULE": "O=C(O)C1=Cc2cc(C#Cc3ccccc3)ccc2NC1C(F)(F)F (centres unmarked) [Example 211]",
    "pIC50": 5.72
  }
]

// query Recorded pIC50 of O=C(O)C1=Cc2cc(Cl)c(-c3ccccc3)cc2OC1C(F)(F)F (centres unmarked) [Example 30] , please.
// result > 7.00

// query Recorded pIC50 of O=C(O)C1=Cc2cc(Cl)ccc2SC1C(F)(F)F (centres unmarked) [Example 65] , please.
// result > 7.00

// query Recorded pIC50 of CCOC(=O)C1=Cc2cc(N)ccc2OC1C(F)(F)F (centres unmarked) [Example 35] , please.
// result 5.66

// query Recorded pIC50 of O=C(O)C1=Cc2cc(Cl)c(Oc3ccc([N+](=O)[O-])cc3)cc2OC1C(F)(F)F (centres unmarked) [Example 203] , please.
// result > 7.00

// query Recorded pIC50 of COc1cc(Br)cc2c1OC(C(F)(F)F)C(C(=O)O)=C2 (centres unmarked) [Example 47] , please.
// result 5.72

// query Recorded pIC50 of O=C(O)C1=Cc2cc(C(F)F)ccc2OC1C(F)(F)F (centres unmarked) [Example 81] , please.
// result > 7.00

// query Recorded pIC50 of O=C(O)C1=Cc2cc(Cl)c(Oc3ccc(Cl)cc3Br)cc2OC1C(F)(F)F (centres unmarked) [Example 188] , please.
// result > 7.00

// query Recorded pIC50 of O=C(O)C1=Cc2cc(Cl)c(I)cc2OC1C(F)(F)F (centres unmarked) [Example 180] , please.
// result > 7.00

// query Recorded pIC50 of O=C(O)C1=Cc2cc(C(F)(F)C(F)(F)F)ccc2OC1C(F)(F)F (centres unmarked) [Example 88] , please.
// result > 7.00

// query Recorded pIC50 of O=C(O)C1=Cc2cc(C(=O)c3ccc(Cl)cc3)ccc2OC1C(F)(F)F (centres unmarked) [Example 97] , please.
// result 6.70

// query Recorded pIC50 of O=C(O)C1=Cc2ccc(-c3ccccc3)cc2OC1C(F)(F)F (centres unmarked) [Example 26] , please.
// result < 4.00

// query Recorded pIC50 of CC(C)(C)NS(=O)(=O)c1ccc2c(c1)C=C(C(=O)O)C(C(F)(F)F)O2 (centres unmarked) [Example 54] , please.
// result 4.72

// query Recorded pIC50 of O=C(O)C1=Cc2cc(Cl)c(Oc3cccnc3Cl)cc2OC1C(F)(F)F (centres unmarked) [Example 200] , please.
// result > 7.00

// query Recorded pIC50 of C#Cc1cc2c(cc1Cl)C=C(C(=O)O)C(C(F)(F)F)O2 (centres unmarked) [Example 181] , please.
// result 5.82

// query Recorded pIC50 of C#Cc1cc(Cl)cc2c1OC(C(F)(F)F)C(C(=O)O)=C2 (centres unmarked) [Example 115] , please.
// result > 7.00
